experimental_target: T1, Recombinant human c-Met Fc chimera (human, UniProt P08581 16-932)
T1 construct: whole c-Met entry named; also called c-Met-Fc fusion protein
protocol_description: competition with biotinylated HGF on plate-coated c-Met-Fc
pIC50: −log10 of the molar value.
pIC50 below 9 gives f; pIC50 at or above it gives t.

stdin: Given the entry P114AR7P94-A3 (designed binder, not shown: small tags and cut ends) LPAPKNLVVSRVTEDSARLSWTAPDAAFDSFWIRYFEFLGSGEAIVLTVPGSERSYDLTGLKPGTEYVVNIMGVKGGKISPPLSAIFTT , answer whether its pIC50 meets or surpasses 9.
stdout: t

stdin: Given the entry P114AR7P92-F3 (designed binder, not shown: small tags and cut ends) LPAPKNLVVSRVTEDSARLSWTAPDAAFDSFWIRYFEFLGSGEAIVLTVPGSERSYDLTGLKPGTEYIVNIMGVKGGSISHPLSAIFTT , answer whether its pIC50 meets or surpasses 9.
stdout: t

stdin: Given the entry P114AR7P93-H9 (designed binder, not shown: small tags and cut ends) LPAPKNLVVSRVTEDSARLSWTAPDAAFDSFWIRYFEFLGSGEAIVLTVPGSERSYDLTGLKPGTEYVVQIIGVKGGHISLPLSAIFTT , answer whether its pIC50 meets or surpasses 9.
stdout: f

---
stdin: Given the entry P114AR7P95-B9 (designed binder, not shown: small tags and cut ends) LPAPKNLVVSRVTEDSARLSWTAPDAAFDSFWIRYFEFLGSGEAIVLTVPGSERSYDLTGLKPGTEYVVQILGVKGGSISVPLSAIFTT , answer whether its pIC50 meets or surpasses 9.
stdout: t

stdin: Given the entry P114AR5P74-A5 (designed binder, not shown: small tags and cut ends) LPAPKNLVVSRVTEDSARLSWTAPDAAFDSFWIRYDEVVVGGEAIVLTVPGSERSYDLTGLKPGTEYYVNILGVKGGSISVPLSAIFTT , answer whether its pIC50 meets or surpasses 9.
stdout: f
